# ASSAY DETAILS: Protein binding in human plasma
# Format: ADME, cell-free
# RUN CONDITIONS: read-out: PPB (converted)
OBSERVATION TYPE: fraction unbound
Give bare numbers.

Nc1nc(OCc2ccccc2)c2[nH]nnc2n1: 0.006

Task: Form field: reported fraction unbound of Nc1cc(SCc2ccccc2F)c2nn[nH]c2n1
Result: 0.02

###

# TARGET OR TEST SYSTEM: Lactoperoxidase (Homo sapiens)
# Sequence (P22079 whole entry): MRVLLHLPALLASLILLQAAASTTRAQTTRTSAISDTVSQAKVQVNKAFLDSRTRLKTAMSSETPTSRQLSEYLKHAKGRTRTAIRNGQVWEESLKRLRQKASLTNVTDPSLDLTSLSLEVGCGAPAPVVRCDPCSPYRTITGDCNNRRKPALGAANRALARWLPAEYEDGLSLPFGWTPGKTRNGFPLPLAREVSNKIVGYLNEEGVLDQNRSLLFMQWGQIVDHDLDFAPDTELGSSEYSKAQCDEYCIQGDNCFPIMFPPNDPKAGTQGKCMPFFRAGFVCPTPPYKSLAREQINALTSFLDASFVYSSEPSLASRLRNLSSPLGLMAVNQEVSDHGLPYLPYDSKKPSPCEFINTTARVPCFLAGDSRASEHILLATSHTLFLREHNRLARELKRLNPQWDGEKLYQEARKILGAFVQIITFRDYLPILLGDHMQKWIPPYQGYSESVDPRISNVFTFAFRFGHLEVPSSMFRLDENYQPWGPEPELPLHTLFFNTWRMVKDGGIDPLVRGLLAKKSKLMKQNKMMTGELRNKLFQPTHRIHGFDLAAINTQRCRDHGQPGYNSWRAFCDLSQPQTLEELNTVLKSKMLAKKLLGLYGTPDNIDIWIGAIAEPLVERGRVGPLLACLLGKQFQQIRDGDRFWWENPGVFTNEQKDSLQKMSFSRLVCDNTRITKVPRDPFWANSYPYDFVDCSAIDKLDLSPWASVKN
# ASSAY DETAILS: Inhibition of human LPO assessed as reduction in H2O2 catalyzed 3,5-iodo tyrosine formation from 3-iodotyrosine and potassium iodide preincubated for 10 mins followed by tyrosine/potassium bromide/H2O2 addition measured after 15 mins
OBSERVATION TYPE: IC50

Task: Form field: reported IC50 of Nc1cc(SCc2ccccc2F)c2nn[nH]c2n1
Result: > 8 µM
